This collection of values is drawn from patent US7893288B2.

// reported Relative to AgNO3 per item
System: Pseudomonas aeruginosa PAO1
Assay procedure: Minimum inhibitory concentration in LB broth, P. aeruginosa
Type: cell-based
Experimental setup: efficacy per mole from MIC values

Sample answers from the record:
{"columns": ["Compound", "Relative to AgNO3"],
 "data": [
  ["Fc1c(F)c(F)c(N=C(N=C(Nc2c(F)c(F)c(F)c(F)c2F)C(F)(F)C(F)(F)C(F)(F)F)C(F)(F)C(F)(F)C(F)(F)F)c(F)c1F [[N{(C3F7)C(C6F5)N}2]H]", "5.14 × 10^−3"],
  ["Fc1cccc(C(F)(F)F)c1N=C(N=C([N]([Ag])c1c(F)cccc1C(F)(F)F)C(F)(F)C(F)(F)C(F)(F)F)C(F)(F)C(F)(F)C(F)(F)F [[N{(C3F7)C(2-F,6-CF3C6H3)N}2]Ag]", "8.76 × 10^−1"],
  ["FC(F)(F)C(F)(F)C(F)(F)C(=Nc1c(Cl)cccc1Cl)N=C(Nc1c(Cl)cccc1Cl)C(F)(F)C(F)(F)C(F)(F)F [[N{(C3F7)C(2,6-Cl2C6H3)N}2]H]", "<7.69 × 10^−4"],
  ["O=[N+]([O-])[O-].[Ag+] [AgNO3, reference compound]", 1.00],
  ["Fc1c(F)c(F)c(N=C(N=C([N]([Ag])c2c(F)c(F)c(F)c(F)c2F)C(F)(F)C(F)(F)C(F)(F)F)C(F)(F)C(F)(F)C(F)(F)F)c(F)c1F [[N{(C3F7)C(C6F5)N}2]Ag]", "6.57 × 10^−1"],
  ["Fc1cccc(C(F)(F)F)c1N=C(N=C(Nc1c(F)cccc1C(F)(F)F)C(F)(F)C(F)(F)C(F)(F)F)C(F)(F)C(F)(F)C(F)(F)F [[N{(C3F7)C(2-F,6-(CF3)C6H3)N}2]H]", "4.62 × 10^−3"],
  ["Cc1cc(C)c(N=C(N=C(Nc2c(C)cc(C)cc2C)C(F)(F)C(F)(F)C(F)(F)F)C(F)(F)C(F)(F)C(F)(F)F)c(C)c1 [[N{(C3F7)C(Mes)N}2]H]", "8.44 × 10^−3"]
]}

// returns Relative to AgNO3 for FC(F)(F)C(F)(F)C(F)(F)C(=Nc1c(Cl)cccc1Cl)N=C([N]([Ag])c1c(Cl)cccc1Cl)C(F)(F)C(F)(F)C(F)(F)F [[N{(C3F7)C(2,6-Cl2C6H3)N}2]Ag] with Pseudomonas aeruginosa PAO1; value = 2.05 × 10^−1

###

Test system: Pseudomonas aeruginosa PAO1
Assay procedure: Disk sensitivity test (modified Kirby-Bauer), P. aeruginosa;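 note: Compound-loaded filter disks on LB agar lawns, DMSO as solvent, zone of inhibition around each disk read after overnight incubation at 37 °C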
Format: cell-based
Experimental setup: 5.7 × 10^0 mM
Rule: Yes for Diameter of the zone of growth inhibition not less than 10 mm, No for anything less.

Below are worked cases with known answers.
{"columns": ["Molecule", "Class"],
 "data": [
  ["Cc1cc(C)c(N=C(N=C(Nc2c(C)cc(C)cc2C)C(F)(F)C(F)(F)C(F)(F)F)C(F)(F)C(F)(F)C(F)(F)F)c(C)c1 [[N{(C3F7)C(Mes)N}2]H]", "No"],
  ["Fc1c(F)c(F)c(N=C(N=C([N]([Ag])c2c(F)c(F)c(F)c(F)c2F)C(F)(F)C(F)(F)C(F)(F)F)C(F)(F)C(F)(F)C(F)(F)F)c(F)c1F [[N{(C3F7)C(C6F5)N}2]Ag]", "Yes"],
  ["Fc1c(F)c(F)c(N=C(N=C(Nc2c(F)c(F)c(F)c(F)c2F)C(F)(F)C(F)(F)C(F)(F)F)C(F)(F)C(F)(F)C(F)(F)F)c(F)c1F [[N{(C3F7)C(C6F5)N}2]H]", "No"],
  ["Fc1cccc(C(F)(F)F)c1N=C(N=C(Nc1c(F)cccc1C(F)(F)F)C(F)(F)C(F)(F)C(F)(F)F)C(F)(F)C(F)(F)C(F)(F)F [[N{(C3F7)C(2-F,6-(CF3)C6H3)N}2]H]", "No"],
  ["FC(F)(F)C(F)(F)C(F)(F)C(=Nc1c(Cl)cccc1Cl)N=C([N]([Ag])c1c(Cl)cccc1Cl)C(F)(F)C(F)(F)C(F)(F)F [[N{(C3F7)C(2,6-Cl2C6H3)N}2]Ag]", "Yes"],
  ["Fc1cccc(C(F)(F)F)c1N=C(N=C([N]([Ag])c1c(F)cccc1C(F)(F)F)C(F)(F)C(F)(F)C(F)(F)F)C(F)(F)C(F)(F)C(F)(F)F [[N{(C3F7)C(2-F,6-CF3C6H3)N}2]Ag]", "Yes"]
]}

Now consider the entry below.
Textbook exercise: given the entry FC(F)(F)C(F)(F)C(F)(F)C(=Nc1c(Cl)cccc1Cl)N=C(Nc1c(Cl)cccc1Cl)C(F)(F)C(F)(F)C(F)(F)F [[N{(C3F7)C(2,6-Cl2C6H3)N}2]H] , state whether its Diameter of the zone of growth inhibition is greater than or equal to 10 mm.
No
